Measured values drawn from paper PMC7850899 for this set.

B1: GST-tagged Sch9 (GST-Sch9) [S. cerevisiae] / HA-tagged wild type Gap1 (HA-Gap1) [S. cerevisiae] (parent complex)
chain 1: MMNFFTSKSSNQDTGFSSQHQHPNGQNNGNNNSSTAGNDNGYPCKLVSSGPCASSNNGALFTNFTLQTATPTTAISQDLYAMGTTGITSENALFQMKSMNNGISSVNNNNSNTPTIITTSQEETNAGNVHGDTGGNSLQNSEDDNFSSSSTTKCLLSSTSSLSINQREAAAAAYGPDTDIPRGKLEVTIIEARDLVTRSKDSQPYVVCTFESSEFISNGPESLGAINNNNNNNNNNQHNQNQHINNNNENTNPDAASQHHNNNSGWNGSQLPSIKEHLKKKPLYTHRSSSQLDQLNSCSSVTDPSKRSSNSSSGSSNGPKNDSSHPIWHHKTTFDVLGSHSELDISVYDAAHDHMFLGQVRLYPMIHNLAHASQHQWHSLKPRVIDEVVSGDILIKWTYKQTKKRHYGPQDFEVLRLLGKGTFGQVYQVKKKDTQRIYAMKVLSKKVIVKKNEIAHTIGERNILVTTASKSSPFIVGLKFSFQTPTDLYLVTDYMSGGELFWHLQKEGRFSEDRAKFYIAELVLALEHLHDNDIVYRDLKPENILLDANGNIALCDFGLSKADLKDRTNTFCGTTEYLAPELLLDETGYTKMVDFWSLGVLIFEMCCGWSPFFAENNQKMYQKIAFGKVKFPRDVLSQEGRSFVKGLLNRNPKHRLGAIDDGRELRAHPFFADIDWEALKQKKIPPPFKPHLVSETDTSNFDPEFTTASTSYMNKHQPMMTATPLSPAMQAKFAGFTFVDESAIDEHVNNNRKFLQNSYFMEPGSFIPGNPNLPPDEDVIDDDGDEDINDGFNQEKNMNNSHSQMDFDGDQHMDDEFVSGRFEI
chain 2: MSNTSSYEKNNPDNLKHNGITIDSEFLTQEPITIPSNGSAVSIDETGSGSKWQDFKDSFKRVKPIEVDPNLSEAEKVAIITAQTPLKHHLKNRHLQMIAIGGAIGTGLLVGSGTALRTGGPASLLIGWGSTGTMIYAMVMALGELAVIFPISGGFTTYATRFIDESFGYANNFNYMLQWLVVLPLEIVSASITVNFWGTDPKYRDGFVALFWLAIVIINMFGVKGYGEAEFVFSFIKVITVVGFIILGIILNCGGGPTGGYIGGKYWHDPGAFAGDTPGAKFKGVCSVFVTAAFSFAGSELVGLAASESVEPRKSVPKAAKQVFWRITLFYILSLLMIGLLVPYNDKSLIGASSVDAAASPFVIAIKTHGIKGLPSVVNVVILIAVLSVGNSAIYACSRTMVALAEQRFLPEIFSYVDRKGRPLVGIAVTSAFGLIAFVAASKKEGEVFNWLLALSGLSSLFTWGGICICHIRFRKALAAQGRGLDELSFKSPTGVWGSYWGLFMVIIMFIAQFYVAVFPVGDSPSAEGFFEAYLSFPLVMVMYIGHKIYKRNWKLFIPAEKMDIDTGRREVDLDLLKQEIAEEKAIMATKPRWYRIWNFWC

# Variants of: B1
# RUN DESCRIPTION: GST pull-down assay; parent: 100
QUANTITY MEASURED: percent of parent

Examples from the recorded data:
chain 2 F231D: 98.9 % of Gap1WT
chain 2 V232K: 86.9 % of Gap1WT
chain 2 F233D: 138 % of Gap1WT

Turning now to a further record.
(Q) Report measured percent of parent; entry is chain 2 F231D, chain 2 V232K, chain 2 F233D
(A) 102 % of Gap1WT
